Data provenance is patent US20170320870A1.

target: LRRK2 wild type (recombinant human, catalytic domain amino acids 970-2527, GST-tagged) (Homo sapiens); construct: The wild type used was recombinant human, catalytic domain (amino acids 970-2527) GST-tagged, expressed in insect cells; GST; assay: LRRK2 wild type protein kinase assay ([γ-33P] ATP, peptide substrate […]), IC50; conditions: LRRK2 (variant not given); read-out: Potency score, LRRK2 IC50
Sequence (Q5S007 970-2527): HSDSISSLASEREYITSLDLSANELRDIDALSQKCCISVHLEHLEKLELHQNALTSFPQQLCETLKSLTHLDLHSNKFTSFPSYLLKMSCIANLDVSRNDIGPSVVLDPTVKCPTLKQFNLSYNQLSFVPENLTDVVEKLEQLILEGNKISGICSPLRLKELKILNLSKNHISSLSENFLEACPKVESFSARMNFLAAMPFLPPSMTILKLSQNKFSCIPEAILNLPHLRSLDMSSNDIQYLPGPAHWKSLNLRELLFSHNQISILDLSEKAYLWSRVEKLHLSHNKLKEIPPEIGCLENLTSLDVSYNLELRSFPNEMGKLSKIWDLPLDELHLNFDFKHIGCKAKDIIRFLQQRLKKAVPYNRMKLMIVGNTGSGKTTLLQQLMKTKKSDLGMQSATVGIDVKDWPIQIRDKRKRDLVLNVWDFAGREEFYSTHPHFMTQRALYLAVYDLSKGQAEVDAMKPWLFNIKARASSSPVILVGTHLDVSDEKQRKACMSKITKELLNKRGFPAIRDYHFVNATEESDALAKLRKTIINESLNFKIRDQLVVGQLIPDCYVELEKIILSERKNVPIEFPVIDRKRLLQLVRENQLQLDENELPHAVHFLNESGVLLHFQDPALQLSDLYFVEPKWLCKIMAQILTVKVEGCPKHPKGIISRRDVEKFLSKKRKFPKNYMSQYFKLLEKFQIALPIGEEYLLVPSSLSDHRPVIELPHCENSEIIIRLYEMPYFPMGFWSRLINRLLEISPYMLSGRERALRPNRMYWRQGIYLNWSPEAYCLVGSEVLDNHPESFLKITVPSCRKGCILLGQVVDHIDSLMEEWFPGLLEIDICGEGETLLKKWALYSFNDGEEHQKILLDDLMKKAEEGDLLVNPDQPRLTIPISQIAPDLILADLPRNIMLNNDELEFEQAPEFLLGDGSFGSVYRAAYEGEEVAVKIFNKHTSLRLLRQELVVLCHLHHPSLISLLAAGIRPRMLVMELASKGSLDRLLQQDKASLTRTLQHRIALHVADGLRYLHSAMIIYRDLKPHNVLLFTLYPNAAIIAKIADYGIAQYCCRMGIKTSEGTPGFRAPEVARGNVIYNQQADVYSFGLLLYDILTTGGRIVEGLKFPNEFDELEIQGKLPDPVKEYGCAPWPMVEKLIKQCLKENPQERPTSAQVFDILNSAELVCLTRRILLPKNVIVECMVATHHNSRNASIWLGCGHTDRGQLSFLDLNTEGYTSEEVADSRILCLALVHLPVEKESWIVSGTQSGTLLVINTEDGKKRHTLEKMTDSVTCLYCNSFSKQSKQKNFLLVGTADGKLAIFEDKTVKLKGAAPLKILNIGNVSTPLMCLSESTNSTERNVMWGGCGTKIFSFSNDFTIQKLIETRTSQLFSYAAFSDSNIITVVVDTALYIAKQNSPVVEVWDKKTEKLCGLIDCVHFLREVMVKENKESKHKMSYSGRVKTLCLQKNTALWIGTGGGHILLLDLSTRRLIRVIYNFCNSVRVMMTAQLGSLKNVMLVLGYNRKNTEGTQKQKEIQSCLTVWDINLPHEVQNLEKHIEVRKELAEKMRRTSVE
Items are presented alongside their recorded IC50.

The examples below pair each entry with its known result.
Cc1n[nH]c2ccnc(Nc3cccc(CO)c3)c12; 0.1 to 1 µM
Cc1n[nH]c2ccnc(N(C)C3CCCCC3)c12; 1 to 10 µM
CC1CCCN(C(=O)CCc2n[nH]c3ccnc(NC4CCCCC4)c23)C1 (stereo not drawn); < 0.1 µM

QUERY: # lookup: IC50 of CC1CN(C(=O)CCc2n[nH]c3ccnc(NC4CCCCC4)c23)CCN1C (stereo not drawn)
RESULT: 0.1 to 1 µM

QUERY: Tell me the measured IC50 of Cc1n[nH]c2ccnc(-c3cccc(F)c3)c12 , please.
RESULT: 1 to 10 µM

QUERY: Reported IC50 for c1ccc(-c2n[nH]c3ccnc(NC4CCCCC4)c23)cc1 : what is it?
RESULT: 0.1 to 1 µM

QUERY: Given the compound Cc1n[nH]c2ccnc(-c3ccc(F)cc3)c12 , what is its reported IC50?
RESULT: 1 to 10 µM

QUERY: Sample Cc1n[nH]c2ccnc(OC3CCOCC3)c12 — what was its IC50?
RESULT: 0.1 to 1 µM

QUERY: GET /values?readout=IC50&item= c1cc(CCc2n[nH]c3ccnc(NC4CCCCC4)c23)ccn1
RESULT: 0.1 to 1 µM

QUERY: I am curious: what IC50 value has been reported for CC[C@H](C)Nc1nccc2[nH]nc(C)c12 ?
RESULT: 0.1 to 1 µM

QUERY: Which IC50 is reported for this compound? Cc1n[nH]c2ccnc(NCCc3cccc(Cl)c3)c12
RESULT: 0.1 to 1 µM

QUERY: What value of IC50 has been recorded for this entry: CNC(=O)CCc1n[nH]c2ccnc(NC3CCCCC3)c12
RESULT: 1 to 10 µM
